Listing of entries alongside the reported Kd.
# ASSAYED SYSTEM: T1, Human BSSL (bile salt-stimulated lipase), native (human, UniProt P19835 21-753)
# T1 construct: Native full-length protein purified from human milk (Astra Hässle AB); also called hBSSL; non-biotinylated human BSSL
# T1 sequence: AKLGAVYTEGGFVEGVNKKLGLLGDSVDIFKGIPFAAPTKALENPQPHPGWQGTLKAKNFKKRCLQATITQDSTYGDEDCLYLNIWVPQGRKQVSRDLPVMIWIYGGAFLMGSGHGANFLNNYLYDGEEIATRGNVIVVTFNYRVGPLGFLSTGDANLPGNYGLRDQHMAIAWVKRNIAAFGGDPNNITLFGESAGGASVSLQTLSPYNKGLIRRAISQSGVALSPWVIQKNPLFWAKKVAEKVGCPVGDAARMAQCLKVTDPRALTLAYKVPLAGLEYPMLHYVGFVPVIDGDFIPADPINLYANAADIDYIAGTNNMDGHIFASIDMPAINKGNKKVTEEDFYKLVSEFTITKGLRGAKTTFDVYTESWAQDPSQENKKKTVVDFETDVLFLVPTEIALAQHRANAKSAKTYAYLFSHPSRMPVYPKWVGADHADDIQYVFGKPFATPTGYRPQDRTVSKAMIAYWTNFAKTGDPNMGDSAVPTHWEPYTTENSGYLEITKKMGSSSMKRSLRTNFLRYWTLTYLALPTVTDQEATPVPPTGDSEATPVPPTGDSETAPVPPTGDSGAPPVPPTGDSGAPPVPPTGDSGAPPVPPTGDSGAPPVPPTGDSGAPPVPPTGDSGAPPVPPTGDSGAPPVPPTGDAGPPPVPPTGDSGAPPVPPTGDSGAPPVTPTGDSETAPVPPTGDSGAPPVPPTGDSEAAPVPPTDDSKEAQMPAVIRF
# ASSAY OVERVIEW: SPR single cycle kinetics, hIgG4 S228P captured by anti-Fab
Please state the value followed by its unit.

Sample records with Kd:
BINDER	Kd
S-SL048-41 hIgG4 S228P (antibody, V domains shown, Tested as human IgG4 S228P) VH: QVQLVQSGAEVKKPGASVKVSCKASGYTFTSYNMHWVRQAPGQGLEWIGVIYPGDGATSYAQKFKGRVTMTRDTSTSTVYMELSSLRSEDTAVYYCARDYYGSSPLGYWGQGTLVTVSS VL: DIQMTQSPSSLSASVGDRVTITCRASSSISYMNWYQQKPGKAPKLLIYATSRLPSGVPSRFSGSGSGTDFTLTISSLQPEDFATYYCHQRSSSPTFGQGTKLEIK	1.2 nM
S-SL048-104 hIgG4 S228P (antibody, V domains shown, Tested as human IgG4 S228P) VH: QVQLVQSGAEVKKPGASVKVSCKASGYTFTSYNMHWVRQAPGQGLEWMGVINPGDGATSYDQKFKGRVTMTRDTSTSTVYMELSSLRSEDTAVYYCARDYYGSSPLGYWGQGTLVTVSS VL: DIQMTQSPSSLSASVGDRVTITCSASSSISYLHWYQQKPGKAPKLLIYAASRLASGVPSRFSGSGSGTDFTLTISSLQPEDFATYYCHQRSSTPTFGQGTKLEIK	3.3 nM

Pending binder:
(Q) Recorded Kd of S-SL048-118 hIgG4 S228P (antibody, V domains shown, also called clone 118; mAb118) VH: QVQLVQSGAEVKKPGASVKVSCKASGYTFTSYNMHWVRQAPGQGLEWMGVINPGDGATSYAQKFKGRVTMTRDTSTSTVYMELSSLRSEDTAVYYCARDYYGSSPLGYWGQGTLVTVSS VL: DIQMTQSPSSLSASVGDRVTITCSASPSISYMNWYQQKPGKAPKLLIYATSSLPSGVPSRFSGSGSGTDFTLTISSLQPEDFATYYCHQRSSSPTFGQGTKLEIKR , please.
(A) 0.9 nM
